- test: Blood and urinary excretion levels, rat
- Type: in vivo
- applied conditions: blood, im, 100 mg/kg, read-out: Peak Level (blood)
- From the text: The results of administering pseudomonic acid to four different animal species are shown in Table 2 in terms of peak blood levels and urinary recovery.
measured endpoint: Cmax (ng/mL)
Numbers only; they are read as ng/mL.

Reported Cmax for C/C(=C\C(=O)OCCCCCCCCC(=O)O)C[C@@H]1OC[C@H](C[C@@H]2O[C@H]2[C@@H](C)[C@H](C)O)[C@@H](O)[C@H]1O [Pseudomonic acid] was 15800

====

- test: Toxicity (LD50), mouse
- Type: in vivo
- applied conditions: in vivo, iv
measured endpoint: LD50

Reported LD50 for C/C(=C\C(=O)OCCCCCCCCC(=O)O)C[C@@H]1OC[C@H](C[C@@H]2O[C@H]2[C@@H](C)[C@H](C)O)[C@@H](O)[C@H]1O [Pseudomonic acid] was 1640 to 2050 mg/kg

====

- test: Blood and urinary excretion levels, squirrel monkey
- Type: in vivo
- applied conditions: blood, im, 100 mg/kg, read-out: Peak Level (blood)
measured endpoint: Cmax (ng/mL)
Numbers only; they are read as ng/mL.

Reported Cmax for C/C(=C\C(=O)OCCCCCCCCC(=O)O)C[C@@H]1OC[C@H](C[C@@H]2O[C@H]2[C@@H](C)[C@H](C)O)[C@@H](O)[C@H]1O [Pseudomonic acid] was 40000

====

- test: Blood and urinary excretion levels, mouse
- Type: in vivo
- applied conditions: blood, sc, 50 mg/kg, read-out: Peak Level (blood)
measured endpoint: Cmax
Your reply should be a number followed by the unit it is expressed in.

Reported Cmax for `C/C(=C\C(=O)OCCCCCCCCC(=O)O)C[C@@H]1OC[C@H](C[C@@H]2O[C@H]2[C@@H](C)[C@H](C)O)[C@@H](O)[C@H]1O` was 7200 ng/mL

====

- test: Toxicity (LD50), mouse
- Type: in vivo
- applied conditions: in vivo, p.c. (so in the source)
measured endpoint: LD50 (mg/kg)
Numbers only; they are read as mg/kg.

Reported LD50 for `C/C(=C\C(=O)OCCCCCCCCC(=O)O)C[C@@H]1OC[C@H](C[C@@H]2O[C@H]2[C@@H](C)[C@H](C)O)[C@@H](O)[C@H]1O` was 5000

====

- test: Blood and urinary excretion levels, squirrel monkey
- Format: in vivo
- applied conditions: urine, po, 100 mg/kg, read-out: Urinary Recovery
measured endpoint: dose excreted
Your reply should be a number followed by the unit it is expressed in.

Reported dose excreted for C/C(=C\C(=O)OCCCCCCCCC(=O)O)C[C@@H]1OC[C@H](C[C@@H]2O[C@H]2[C@@H](C)[C@H](C)O)[C@@H](O)[C@H]1O [Pseudomonic acid] was 1.5%

====

- test: Toxicity (LD50), rat
- Format: in vivo
- applied conditions: in vivo, sc
measured endpoint: LD50 (mg/kg)
Numbers only; they are read as mg/kg.

Reported LD50 for C/C(=C\C(=O)OCCCCCCCCC(=O)O)C[C@@H]1OC[C@H](C[C@@H]2O[C@H]2[C@@H](C)[C@H](C)O)[C@@H](O)[C@H]1O [Pseudomonic acid] was 5000

====

- test: Blood and urinary excretion levels, rat
- Type: in vivo
- applied conditions: urine, iv, 100 mg/kg, read-out: Urinary Recovery
measured endpoint: dose excreted

Reported dose excreted for C/C(=C\C(=O)OCCCCCCCCC(=O)O)C[C@@H]1OC[C@H](C[C@@H]2O[C@H]2[C@@H](C)[C@H](C)O)[C@@H](O)[C@H]1O [Pseudomonic acid] was < 1%

====

- test: Blood and urinary excretion levels, mouse
- Type: in vivo
- applied conditions: blood, po, 50 mg/kg, read-out: Peak Level (blood)
measured endpoint: Cmax

Reported Cmax for `C/C(=C\C(=O)OCCCCCCCCC(=O)O)C[C@@H]1OC[C@H](C[C@@H]2O[C@H]2[C@@H](C)[C@H](C)O)[C@@H](O)[C@H]1O` was < 1000 ng/mL

====

- test: Blood and urinary excretion levels, squirrel monkey
- Format: in vivo
- applied conditions: urine, im, 100 mg/kg, read-out: Urinary Recovery
measured endpoint: dose excreted (%)
Numbers only; they are read as %.

Reported dose excreted for `C/C(=C\C(=O)OCCCCCCCCC(=O)O)C[C@@H]1OC[C@H](C[C@@H]2O[C@H]2[C@@H](C)[C@H](C)O)[C@@H](O)[C@H]1O` was 2

====

- test: Blood and urinary excretion levels, squirrel monkey
- Assay type: in vivo
- applied conditions: blood, po, 100 mg/kg, read-out: Peak Level (blood)
measured endpoint: Cmax

Reported Cmax for C/C(=C\C(=O)OCCCCCCCCC(=O)O)C[C@@H]1OC[C@H](C[C@@H]2O[C@H]2[C@@H](C)[C@H](C)O)[C@@H](O)[C@H]1O [Pseudomonic acid] was 26800 ng/mL

====

- test: Toxicity (LD50), rat
- Format: in vivo
- applied conditions: in vivo, po
measured endpoint: LD50 (mg/kg)
Numbers only; they are read as mg/kg.

Reported LD50 for `C/C(=C\C(=O)OCCCCCCCCC(=O)O)C[C@@H]1OC[C@H](C[C@@H]2O[C@H]2[C@@H](C)[C@H](C)O)[C@@H](O)[C@H]1O` was 5000

====

- test: Blood and urinary excretion levels, rat
- Type: in vivo
- applied conditions: urine, im, 100 mg/kg, read-out: Urinary Recovery
measured endpoint: dose excreted

Reported dose excreted for C/C(=C\C(=O)OCCCCCCCCC(=O)O)C[C@@H]1OC[C@H](C[C@@H]2O[C@H]2[C@@H](C)[C@H](C)O)[C@@H](O)[C@H]1O [Pseudomonic acid] was < 1%

====

- test: Blood and urinary excretion levels, mouse
- Type: in vivo
- applied conditions: urine, po, 50 mg/kg, read-out: Urinary Recovery
measured endpoint: dose excreted

Reported dose excreted for `C/C(=C\C(=O)OCCCCCCCCC(=O)O)C[C@@H]1OC[C@H](C[C@@H]2O[C@H]2[C@@H](C)[C@H](C)O)[C@@H](O)[C@H]1O` was < 1%

====

- test: Blood and urinary excretion levels, mouse
- Type: in vivo
- applied conditions: urine, sc, 50 mg/kg, read-out: Urinary Recovery
- Excerpt: The results of administering pseudomonic acid to four different animal species are shown in Table 2 in terms of peak blood levels and urinary recovery.
measured endpoint: dose excreted

Reported dose excreted for `C/C(=C\C(=O)OCCCCCCCCC(=O)O)C[C@@H]1OC[C@H](C[C@@H]2O[C@H]2[C@@H](C)[C@H](C)O)[C@@H](O)[C@H]1O` was < 1%

====

- test: Blood and urinary excretion levels, dog
- Assay type: in vivo
- applied conditions: urine, im, 100 mg/kg, read-out: Urinary Recovery
measured endpoint: dose excreted
Your reply should be a number followed by the unit it is expressed in.

Reported dose excreted for `C/C(=C\C(=O)OCCCCCCCCC(=O)O)C[C@@H]1OC[C@H](C[C@@H]2O[C@H]2[C@@H](C)[C@H](C)O)[C@@H](O)[C@H]1O` was 1%

====

- test: Toxicity (LD50), rat
- Type: in vivo
- applied conditions: in vivo, iv
measured endpoint: LD50

Reported LD50 for `C/C(=C\C(=O)OCCCCCCCCC(=O)O)C[C@@H]1OC[C@H](C[C@@H]2O[C@H]2[C@@H](C)[C@H](C)O)[C@@H](O)[C@H]1O` was 1310 to 2560 mg/kg

====

- test: Blood and urinary excretion levels, rat
- Format: in vivo
- applied conditions: blood, iv, 100 mg/kg, read-out: Peak Level (blood)
measured endpoint: Cmax (µg/mL)
Numbers only; they are read as µg/mL.

Reported Cmax for `C/C(=C\C(=O)OCCCCCCCCC(=O)O)C[C@@H]1OC[C@H](C[C@@H]2O[C@H]2[C@@H](C)[C@H](C)O)[C@@H](O)[C@H]1O` was 66.7
